B1: library; a variant is named by its letters at N, in order (parent)
chain: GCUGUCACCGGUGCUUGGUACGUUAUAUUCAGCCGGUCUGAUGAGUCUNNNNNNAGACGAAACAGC

- Variants of: B1
- assay: normalized RNA/DNA level without ligand (relative to sTRSVctl = 100) (log10 (% of sTRSVctl)); HEK293T overexpressing SLC46A1; higher = less ribozyme self-cleavage, higher mRNA level
- settings: without (6R,S)-folinic acid; ligand present: no
readout_label: normalized RNA/DNA level without ligand (log10)
// no unit string in output, number only

Enquiry: Given the entry UUGUGG , report its measured normalized RNA/DNA level without ligand (log10).
Return: 1.89

Enquiry: Given the entry UCCAAA , report its measured normalized RNA/DNA level without ligand (log10).
Return: 1.98

Enquiry: Given the entry GGUACU , report its measured normalized RNA/DNA level without ligand (log10).
Return: 2.06

Enquiry: Given the entry UGCAAG , report its measured normalized RNA/DNA level without ligand (log10).
Return: 1.78

Enquiry: Given the entry GCAUCG , report its measured normalized RNA/DNA level without ligand (log10).
Return: 2.01

Enquiry: Given the entry GACCAU , report its measured normalized RNA/DNA level without ligand (log10).
Return: 2.02

Enquiry: Given the entry UUUUCA , report its measured normalized RNA/DNA level without ligand (log10).
Return: 2.02

Enquiry: Given the entry GCCUAA , report its measured normalized RNA/DNA level without ligand (log10).
Return: 2.01

Enquiry: Given the entry CCAAUA , report its measured normalized RNA/DNA level without ligand (log10).
Return: 1.99

Enquiry: Given the entry UAUUAA , report its measured normalized RNA/DNA level without ligand (log10).
Return: 1.95

Enquiry: Given the entry UCCUAU , report its measured normalized RNA/DNA level without ligand (log10).
Return: 1.98

Enquiry: Given the entry UCUGAC , report its measured normalized RNA/DNA level without ligand (log10).
Return: 2.01

Enquiry: Given the entry GUAUAC , report its measured normalized RNA/DNA level without ligand (log10).
Return: 1.98

Enquiry: Given the entry CCGCGG , report its measured normalized RNA/DNA level without ligand (log10).
Return: 2.03

Enquiry: Given the entry ACUGAA , report its measured normalized RNA/DNA level without ligand (log10).
Return: 1.95

Enquiry: Given the entry GAGUUC , report its measured normalized RNA/DNA level without ligand (log10).
Return: 2.01

Enquiry: Given the entry GCGAAA , report its measured normalized RNA/DNA level without ligand (log10).
Return: 1.98

Enquiry: Given the entry UUGACC , report its measured normalized RNA/DNA level without ligand (log10).
Return: 2.04

Enquiry: Given the entry CCUCGG , report its measured normalized RNA/DNA level without ligand (log10).
Return: 2.08

Enquiry: Given the entry CUGCUG , report its measured normalized RNA/DNA level without ligand (log10).
Return: 2.04

Enquiry: Given the entry AUGACC , report its measured normalized RNA/DNA level without ligand (log10).
Return: 2.05

Enquiry: Given the entry UAGUCU , report its measured normalized RNA/DNA level without ligand (log10).
Return: 2.01

Enquiry: Given the entry UAAUAC , report its measured normalized RNA/DNA level without ligand (log10).
Return: 1.94

Enquiry: Given the entry GUGGAG , report its measured normalized RNA/DNA level without ligand (log10).
Return: 1.86

Enquiry: Given the entry CUUGGC , report its measured normalized RNA/DNA level without ligand (log10).
Return: 2.06

Enquiry: Given the entry AUAUUA , report its measured normalized RNA/DNA level without ligand (log10).
Return: 1.96

Enquiry: Given the entry GCAGCC , report its measured normalized RNA/DNA level without ligand (log10).
Return: 2

Enquiry: Given the entry AGUGAU , report its measured normalized RNA/DNA level without ligand (log10).
Return: 1.97

Enquiry: Given the entry CUUAAA , report its measured normalized RNA/DNA level without ligand (log10).
Return: 1.98

Enquiry: Given the entry CACGUA , report its measured normalized RNA/DNA level without ligand (log10).
Return: 1.99

Enquiry: Given the entry GAAUUG , report its measured normalized RNA/DNA level without ligand (log10).
Return: 1.93

Enquiry: Given the entry GCAACA , report its measured normalized RNA/DNA level without ligand (log10).
Return: 2.06

Enquiry: Given the entry UACCGC , report its measured normalized RNA/DNA level without ligand (log10).
Return: 1.99

Enquiry: Given the entry GUCCUC , report its measured normalized RNA/DNA level without ligand (log10).
Return: 2.02

Enquiry: Given the entry GCGCAC , report its measured normalized RNA/DNA level without ligand (log10).
Return: 1.99

Enquiry: Given the entry AUCUGA , report its measured normalized RNA/DNA level without ligand (log10).
Return: 2.02

Enquiry: Given the entry CCGUAA , report its measured normalized RNA/DNA level without ligand (log10).
Return: 1.98

Enquiry: Given the entry GCCUUA , report its measured normalized RNA/DNA level without ligand (log10).
Return: 1.98

Enquiry: Given the entry UGCAAC , report its measured normalized RNA/DNA level without ligand (log10).
Return: 1.95

Enquiry: Given the entry GGCCAU , report its measured normalized RNA/DNA level without ligand (log10).
Return: 2.05

Enquiry: Given the entry CAGUAU , report its measured normalized RNA/DNA level without ligand (log10).
Return: 1.95

Enquiry: Given the entry GAUCAG , report its measured normalized RNA/DNA level without ligand (log10).
Return: 2.03

Enquiry: Given the entry AGAUCC , report its measured normalized RNA/DNA level without ligand (log10).
Return: 2.06

Enquiry: Given the entry CAUCCC , report its measured normalized RNA/DNA level without ligand (log10).
Return: 2.06

Enquiry: Given the entry AACAGA , report its measured normalized RNA/DNA level without ligand (log10).
Return: 1.96

Enquiry: Given the entry UUUACA , report its measured normalized RNA/DNA level without ligand (log10).
Return: 2.02

Enquiry: Given the entry CAAUGU , report its measured normalized RNA/DNA level without ligand (log10).
Return: 1.98

Enquiry: Given the entry GGAGUA , report its measured normalized RNA/DNA level without ligand (log10).
Return: 1.98

Enquiry: Given the entry GAGCGG , report its measured normalized RNA/DNA level without ligand (log10).
Return: 1.98

Enquiry: Given the entry AAAUUU , report its measured normalized RNA/DNA level without ligand (log10).
Return: 2.05

Enquiry: Given the entry AGUAAG , report its measured normalized RNA/DNA level without ligand (log10).
Return: 1.9

Enquiry: Given the entry AUGAAU , report its measured normalized RNA/DNA level without ligand (log10).
Return: 1.93

Enquiry: Given the entry UAUAGC , report its measured normalized RNA/DNA level without ligand (log10).
Return: 1.94

Enquiry: Given the entry CCUGCU , report its measured normalized RNA/DNA level without ligand (log10).
Return: 2.06

Enquiry: Given the entry GAUCGG , report its measured normalized RNA/DNA level without ligand (log10).
Return: 2.08

Enquiry: Given the entry UAAUGG , report its measured normalized RNA/DNA level without ligand (log10).
Return: 1.6

Enquiry: Given the entry UAAGAA , report its measured normalized RNA/DNA level without ligand (log10).
Return: 1.88

Enquiry: Given the entry UCGAAA , report its measured normalized RNA/DNA level without ligand (log10).
Return: 1.93

Enquiry: Given the entry CUAUGA , report its measured normalized RNA/DNA level without ligand (log10).
Return: 2.02

Enquiry: Given the entry GAACUU , report its measured normalized RNA/DNA level without ligand (log10).
Return: 2

Enquiry: Given the entry AACCAU , report its measured normalized RNA/DNA level without ligand (log10).
Return: 1.98

Enquiry: Given the entry GACGUU , report its measured normalized RNA/DNA level without ligand (log10).
Return: 2

Enquiry: Given the entry AUAGGU , report its measured normalized RNA/DNA level without ligand (log10).
Return: 1.87

Enquiry: Given the entry ACCUGA , report its measured normalized RNA/DNA level without ligand (log10).
Return: 2

Enquiry: Given the entry GCGGCG , report its measured normalized RNA/DNA level without ligand (log10).
Return: 2.07

Enquiry: Given the entry CGACCA , report its measured normalized RNA/DNA level without ligand (log10).
Return: 2.08

Enquiry: Given the entry GGGUGG , report its measured normalized RNA/DNA level without ligand (log10).
Return: 2.06

Enquiry: Given the entry GUAUUG , report its measured normalized RNA/DNA level without ligand (log10).
Return: 1.94

Enquiry: Given the entry CGAUGC , report its measured normalized RNA/DNA level without ligand (log10).
Return: 2.04

Enquiry: Given the entry CCCGGA , report its measured normalized RNA/DNA level without ligand (log10).
Return: 2.07

Enquiry: Given the entry CGAUUC , report its measured normalized RNA/DNA level without ligand (log10).
Return: 2.09

Enquiry: Given the entry UUUAGA , report its measured normalized RNA/DNA level without ligand (log10).
Return: 1.99

Enquiry: Given the entry UCAGCG , report its measured normalized RNA/DNA level without ligand (log10).
Return: 1.91

Enquiry: Given the entry CUUGAG , report its measured normalized RNA/DNA level without ligand (log10).
Return: 1.93

Enquiry: Given the entry UCGAGA , report its measured normalized RNA/DNA level without ligand (log10).
Return: 2.01

Enquiry: Given the entry CACACG , report its measured normalized RNA/DNA level without ligand (log10).
Return: 2.03

Enquiry: Given the entry GCAUCC , report its measured normalized RNA/DNA level without ligand (log10).
Return: 2.06

Enquiry: Given the entry GCUGGC , report its measured normalized RNA/DNA level without ligand (log10).
Return: 1.96

Enquiry: Given the entry UUCAGU , report its measured normalized RNA/DNA level without ligand (log10).
Return: 1.98

Enquiry: Given the entry CGAAUG , report its measured normalized RNA/DNA level without ligand (log10).
Return: 2.02

Enquiry: Given the entry AGGUCA , report its measured normalized RNA/DNA level without ligand (log10).
Return: 1.97

Enquiry: Given the entry CGCUUC , report its measured normalized RNA/DNA level without ligand (log10).
Return: 2.11

Enquiry: Given the entry GUCGUG , report its measured normalized RNA/DNA level without ligand (log10).
Return: 1.97

Enquiry: Given the entry GACAGG , report its measured normalized RNA/DNA level without ligand (log10).
Return: 1.96

Enquiry: Given the entry CGUCAG , report its measured normalized RNA/DNA level without ligand (log10).
Return: 2

Enquiry: Given the entry AACGCA , report its measured normalized RNA/DNA level without ligand (log10).
Return: 2

Enquiry: Given the entry CCAUGG , report its measured normalized RNA/DNA level without ligand (log10).
Return: 1.99

Enquiry: Given the entry GGUAUA , report its measured normalized RNA/DNA level without ligand (log10).
Return: 1.99

Enquiry: Given the entry UACUUG , report its measured normalized RNA/DNA level without ligand (log10).
Return: 1.78

Enquiry: Given the entry AACCGA , report its measured normalized RNA/DNA level without ligand (log10).
Return: 2

Enquiry: Given the entry GGUACC , report its measured normalized RNA/DNA level without ligand (log10).
Return: 2.07
